Entries and their measured relative cleavage efficiency follow.
- Tested On: fusion protein PRA
- Sequence (chain, as listed by the source): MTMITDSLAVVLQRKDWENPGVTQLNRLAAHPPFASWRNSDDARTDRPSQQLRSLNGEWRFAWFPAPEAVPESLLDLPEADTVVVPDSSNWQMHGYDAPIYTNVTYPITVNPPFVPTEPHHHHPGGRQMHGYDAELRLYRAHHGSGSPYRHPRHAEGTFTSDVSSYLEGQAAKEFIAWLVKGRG
Your answer is read as %, so omit the unit and give the number.

May I ask what relative cleavage efficiency has been recorded for OmpT protease (wild-type, E. coli mature OmpT protease) (protein) STETLSFTPDNINADISLGTLSGKTKERVYLAEEGGRKVSQLDWKFNNAAIIKGAINWDLMPQISIGAAGWTTLGSRGGNMVDQDWMDSSNPGTWTDESRHPDTQLNYANEFDLNIKGWLLNEPNYRLGLMAGYQESRYSFTARGGSYIYSSEEGFRDDIGSFPNGERAIGYKQRFKMPYIGLTGSYRYEDFELGGTFKYSGWVESSDNDEHYDPGKRITYRSKVKDQNYYSVAVNAGYYVTPNAKVYVEGAWNRVTNKKGNTSLYDHNNNTSDYSKNGAGIENYNFITTAGLKYTF ?
5.4

Continuing:
May I ask what relative cleavage efficiency has been recorded for OmpT protease variant OmpT D97N (protein) STETLSFTPDNINADISLGTLSGKTKERVYLAEEGGRKVSQLDWKFNNAAIIKGAINWDLMPQISIGAAGWTTLGSRGGNMVDQDWMDSSNPGTWTNESRHPDTQLNYANEFDLNIKGWLLNEPNYRLGLMAGYQESRYSFTARGGSYIYSSEEGFRDDIGSFPNGERAIGYKQRFKMPYIGLTGSYRYEDFELGGTFKYSGWVESSDNDEHYDPGKRITYRSKVKDQNYYSVAVNAGYYVTPNAKVYVEGAWNRVTNKKGNTSLYDHNNNTSDYSKNGAGIENYNFITTAGLKYTF ?
3.8
